Documented Max. specific activity, DHB across a set of molecules
experimental_details: DHB dehydrogenase activity of cytosolic enzymes (DHB-dependent reduction of NAD+)
Assay type: biochemical
applied_conditions: activity measured at 50 mM DHB; Table 4
Dear colleague, please return just the value in µmol/mg/min, with no unit written.

Below are worked cases with known answers.
# molecule, units_of_measure, Max. specific activity, DHB
data = [
    ("Ec-MdhR81A G179D: E. coli malate dehydrogenase mutant R81A G179D, SEQ ID No. 168 (protein, listed as Escherichia coli) MKVAVLGAAGGIGQALALLLKTQLPSGSELSLYDIAPVTPGVAVDLSHIPTAVKIKGFSGEDATPALEGADVVLISAGVAAKPGMDRSDLFNVNAGIVKNLVQQVAKTCPKACIGIITNPVNTTVAIAAEVLKKAGVYDKNKLFGVTTLDIIRSNTFVAELKGKQPGEVEVPVIGGHSDVTILPLLSQVPGVSFTEQEVADLTKRIQNAGTEVVEAKAGGGSATLSMGQAAARFGLSLVRALQGEQGVVECAYVEGDGQYARFFSQPLLLGKNGVEERKSIGTLSAFEQNALEGMLDTLKKDIALGEEFVNK", "µmol/mg/min", 2.1),
    ("Bs-MdhR87C: B. subtilis malate dehydrogenase mutant R87C, SEQ ID No. 154 (protein, listed as Bacillus subtilis) MGNTRKKVSVIGAGFTGATTAFLIAQKELADVVLVDIPQLENPTKGKALDMLEASPVQGFDAKITGTSNYEDTAGSDIVVITAGIACKPGMSRDDLVSTNEKIMRSVTQEIVKYSPDSIIVVLTNPVDAMTYAVYKESGFPKERVIGQSGVLDTARFRTFVAEELNLSVKDVTGFVLGGHGDDMVPLVRYSYAGGIPLETLIPKERIDAIVERTRKGGGEIVNLLGNGSAYYAPAASLTEMVEAILKDQRRVLPTIAYLEGEYGYEGIYLGVPTIVGGNGLEQIIELELTDYERAQLNKSVESVKNVMKVLS", "µmol/mg/min", 0.06),
]

Proceed to the following item.
Short answer for Ec-MdhR81A M85Q: E. coli malate dehydrogenase mutant R81A M85Q, SEQ ID No. 158 (protein, listed as Escherichia coli) MKVAVLGAAGGIGQALALLLKTQLPSGSELSLYDIAPVTPGVAVDLSHIPTAVKIKGFSGEDATPALEGADVVLISAGVAAKPGQDRSDLFNVNAGIVKNLVQQVAKTCPKACIGIITNPVNTTVAIAAEVLKKAGVYDKNKLFGVTTLDIIRSNTFVAELKGKQPGEVEVPVIGGHSGVTILPLLSQVPGVSFTEQEVADLTKRIQNAGTEVVEAKAGGGSATLSMGQAAARFGLSLVRALQGEQGVVECAYVEGDGQYARFFSQPLLLGKNGVEERKSIGTLSAFEQNALEGMLDTLKKDIALGEEFVNK : Max. specific activity, DHB was 2.98
